# system: BRD4 (Homo sapiens, UniProt O60885)
# procedure-text: CURE-PRO-mediated BRD4 degradation, Western blot, HeLa cells
# Assay type: cell-based
# Design: endogenous in cells; host or cells: HeLa
# stated-conditions: 24 h, BRD monomer alone, Western blot
# Procedure: All cell lines were purchased from ATCC or DSMZ and grown at 37° C. with 5% CO2. […] HeLa, MCF7, or HCT116 cells (2.5-3×10^6) were treated for 24 hours with the indicated compounds solubilized in DMSO. […] The total protein concentrations were determined by Bradford Protein Assay and 10-20 μg of protein was loaded onto 4-15% Tris-Glycine gradient gels (Biorad). […]
observation-type: BRD4 degradation, BRD ligand alone

smiles_structure=CCNC(=O)C[C@@H]1N=C(c2ccc(Cl)cc2)c2cc(-c3cccc(B(O)O)c3)ccc2-n2c(C)nnc21 data_value="no change in expression"
smiles_structure=CCNC(=O)C[C@@H]1N=C(c2ccc(Cl)cc2)c2cc(OCCOCCOCCOCCOCCOCCNC(=O)c3cccc(O)c3O)ccc2-n2c(C)nnc21 data_value="no degradation of BRD4"
smiles_structure=COc1ccc2c(c1)C(c1ccc(Cl)cc1)=N[C@@H](CC(=O)NCCCCNC(=O)c1cccc(O)c1O)c1nnc(C)n1-2 data_value="no degradation of BRD4"
smiles_structure=COc1ccc2c(c1)C(c1ccc(Cl)cc1)=N[C@@H](CC(=O)NCCCCCNC(=O)c1cccc(B(O)O)c1)c1nnc(C)n1-2 data_value="no change in expression"
smiles_structure=COc1ccc2c(c1)C(c1ccc(Cl)cc1)=N[C@@H](CC(=O)NCCNC(=O)/C=C/c1cccc(B(O)O)c1)c1nnc(C)n1-2 data_value="no change in expression"
smiles_structure=CCNC(=O)C[C@@H]1N=C(c2ccc(Cl)cc2)c2cc(OCCCCC(=O)Nc3ccc(O)c(O)c3)ccc2-n2c(C)nnc21 data_value="no degradation of BRD4"
smiles_structure=CCNC(=O)C[C@@H]1N=C(c2ccc(Cl)cc2)c2cc(OCCNC(=O)c3cccc(B(O)O)c3)ccc2-n2c(C)nnc21 data_value="no change in expression"
smiles_structure=COc1ccc2c(c1)C(c1ccc(Cl)cc1)=N[C@@H](CC(=O)NCCCCNC(=O)c1ccc(O)c(O)c1)c1nnc(C)n1-2 data_value="no degradation of BRD4"
smiles_structure=CCNC(=O)C[C@@H]1N=C(c2ccc(Cl)cc2)c2cc(OCCOCCNC(=O)c3cccc(O)c3O)ccc2-n2c(C)nnc21 data_value="no degradation of BRD4"

Shifting focus to the compound that follows.
[ask] Look up BRD4 degradation, BRD ligand alone: `CCNC(=O)C[C@@H]1N=C(c2ccc(Cl)cc2)c2cc(OCCCCCCNC(=O)c3ccc(B(O)O)cc3)ccc2-n2c(C)nnc21`
[reply] no change in expression
